Reported pIC50 values are given for each entry in this list.
test system: HL-60; assay: Cytotoxicity against human HL60 cells by MTT assay; type: functional, cell-based; details: Homo sapiens, HL-60; read-out: IC50
Note: pIC50 values are expressed as the negative base-10 logarithm of concentration in M.

Check out these entries, answers already filled in.
INSERT INTO results (compound, measured_parameter, result_value) VALUES
  ('CCOC(=O)/C=C/c1ccc(OC)cc1 [4-METHOXY ETHYL CINNAMATE]', 'pIC50', 4.53),
  ('C=C1CC[C@H]2C(C)(C)CCC[C@]2(C)[C@H]1/C=C/c1ccoc1', 'pIC50', 4.51);

Task item: Fill in: pIC50 of COc1cc([C@@H]2c3cc4c(cc3[C@@H](O[C@@H]3O[C@@H]5CO[C@@H](C)O[C@H]5[C@H](O)[C@H]3O)[C@H]3COC(=O)[C@H]23)OCO4)cc(OC)c1O [ETOPOSIDE] is ___
Reply: 5.67

Task item: Fill in: pIC50 of CC1(C)CCC[C@]2(C)[C@@H](/C=C/c3ccoc3)C(C=O)=C(O)C(=O)[C@@H]12 is ___
Reply: 4.80

Task item: Fill in: pIC50 of CC1(C)CCC[C@]2(C)[C@@H](/C=C/c3ccoc3)C(CO)=CC(=O)[C@@H]12 is ___
Reply: 4.44

Task item: Fill in: pIC50 of CCOC(=O)/C=C/c1ccccc1 [ETHYL CINNAMATE] is ___
Reply: 4.45

Task item: Fill in: pIC50 of CC1=CC(=O)[C@H]2C(C)(C)CCC[C@]2(C)[C@H]1/C=C/C(=O)O is ___
Reply: 4.16

Task item: Fill in: pIC50 of O=c1cc(-c2ccccc2)oc2cc(O)cc(O)c12 is ___
Reply: 4.47
